B1: Caulobacter ParB omega fusion; a variant is named by its letters at X, in order, B8GW30 (parent)
chain: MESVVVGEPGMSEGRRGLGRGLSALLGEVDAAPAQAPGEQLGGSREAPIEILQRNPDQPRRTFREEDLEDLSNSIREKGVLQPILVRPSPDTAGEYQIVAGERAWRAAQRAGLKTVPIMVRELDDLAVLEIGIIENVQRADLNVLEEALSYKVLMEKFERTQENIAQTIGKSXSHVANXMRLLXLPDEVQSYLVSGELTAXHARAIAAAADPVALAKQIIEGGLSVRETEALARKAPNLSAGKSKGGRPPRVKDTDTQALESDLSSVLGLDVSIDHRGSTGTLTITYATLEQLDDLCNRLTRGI

Variants of: B1
Test: one-hybrid fitness for binding NBS DNA (the Noc-binding site; scaled: cognate 1, non-cognate 0); higher = stronger binding
Conditions: with NBS DNA site
The full ranking holds about 81,000 sequences; the median of “one-hybrid fitness for binding NBS DNA” is about -0.1, and the highest 2% start at about 0.36. The sample holds the highest values, similar sequences and a random draw of the others, so the mix is not that of the screen.
Measured Metric: one-hybrid fitness for binding NBS DNA

Prompt: For the variant "QTNT" , what one-hybrid fitness for binding NBS DNA is on record?
Completion: 0.71

Prompt: Lookup "PNPM"
Completion: ≤ 0.2

Prompt: Lookup "QRGQ"
Completion: 0.435

Prompt: Lookup "QPTT"
Completion: ≤ 0.2

Prompt: Lookup "QKQF"
Completion: ≤ 0.2

Prompt: Lookup "RTLD"
Completion: ≤ 0.2

Prompt: Lookup "QLTS"
Completion: 0.307

Prompt: Lookup "QPGC"
Completion: ≤ 0.2

Prompt: Lookup "NCII"
Completion: ≤ 0.2

Prompt: Lookup "QTND"
Completion: 0.227

Prompt: Lookup "YKDH"
Completion: 0.692

Prompt: Lookup "GRTC"
Completion: ≤ 0.2

Prompt: Lookup "EYWD"
Completion: ≤ 0.2

Prompt: Lookup "RRRY"
Completion: 0.798

Prompt: Lookup "PISS"
Completion: ≤ 0.2

Prompt: Lookup "QLSS"
Completion: 0.317

Prompt: Lookup "QKQC"
Completion: ≤ 0.2

Prompt: Lookup "QCGC"
Completion: 0.244

Prompt: Lookup "KRRD"
Completion: ≤ 0.2

Prompt: Lookup "RTLS"
Completion: 0.381

Prompt: Lookup "QMTQ"
Completion: ≤ 0.2

Prompt: Lookup "RTHH"
Completion: 0.262

Prompt: Lookup "QAQT"
Completion: 0.364

Prompt: Lookup "QPCT"
Completion: ≤ 0.2

Prompt: Lookup "YKNT"
Completion: ≤ 0.2

Prompt: Lookup "QSTN"
Completion: ≤ 0.2

Prompt: Lookup "WMPP"
Completion: ≤ 0.2

Prompt: Lookup "PTGW"
Completion: ≤ 0.2

Prompt: Lookup "MTMS"
Completion: ≤ 0.2

Prompt: Lookup "QMTT"
Completion: 0.463

Prompt: Lookup "QLTT"
Completion: 0.393

Prompt: Lookup "RTSN"
Completion: ≤ 0.2

Prompt: Lookup "CHRG"
Completion: ≤ 0.2

Prompt: Lookup "RTFH"
Completion: ≤ 0.2

Prompt: Lookup "HGGG"
Completion: ≤ 0.2

Prompt: Lookup "QTNP"
Completion: ≤ 0.2

Prompt: Lookup "FQNR"
Completion: ≤ 0.2

Prompt: Lookup "QSTH"
Completion: ≤ 0.2

Prompt: Lookup "RTFT"
Completion: 0.417

Prompt: Lookup "KCCR"
Completion: ≤ 0.2

Prompt: Lookup "NRCR"
Completion: ≤ 0.2

Prompt: Lookup "PTMM"
Completion: ≤ 0.2

Prompt: Lookup "QPQT"
Completion: ≤ 0.2

Prompt: Lookup "NGVK"
Completion: ≤ 0.2

Prompt: Lookup "SLFT"
Completion: ≤ 0.2

Prompt: Lookup "QCTT"
Completion: 0.486

Prompt: Lookup "MDLY"
Completion: ≤ 0.2

Prompt: Lookup "AGGD"
Completion: ≤ 0.2

Prompt: Lookup "PNQS"
Completion: ≤ 0.2

Prompt: Lookup "YKDT"
Completion: 0.385

Prompt: Lookup "HQQG"
Completion: ≤ 0.2

Prompt: Lookup "QTSF"
Completion: ≤ 0.2

Prompt: Lookup "KRRR"
Completion: 0.787

Prompt: Lookup "QRGP"
Completion: 0.301

Prompt: Lookup "AVSG"
Completion: ≤ 0.2

Prompt: Lookup "SFYS"
Completion: ≤ 0.2

Prompt: Lookup "SLSS"
Completion: ≤ 0.2

Prompt: Lookup "IDHN"
Completion: ≤ 0.2

Prompt: Lookup "QSTT"
Completion: 0.403

Prompt: Lookup "QTQC"
Completion: 0.239

Prompt: Lookup "VSAH"
Completion: ≤ 0.2

Prompt: Lookup "VSSH"
Completion: ≤ 0.2

Prompt: Lookup "RTSD"
Completion: ≤ 0.2

Prompt: Lookup "FYQC"
Completion: ≤ 0.2
